Tested on: SNB-19 CNS
assay_notes: NCI tumour cell line growth inhibition, 48 h
*1 amine or outer side, *2 acyl side, *3 side chain or, on linkers, in order; H or OH if unused. Where a SMILES comes first, the peptide text is derived from it. [ ]: non-standard residue; d: D form. The star is where a group is joined. X31 = CC(=O)N(C)SCC(N[*:1])C(=O)[*:2]; Fmoc = O=C(OCC1c2ccccc2-c2ccccc21)*; For = O=C*
property_measured: TGI

Below, 2 molecules whose answers are already recorded.
COc1cc2c(Cc3cc(OCc4ccccc4)ccc3N)nccc2c(OC)c1OC; > 10 µM
O=C1c2ccccc2C(=O)c2c(O)c(NCCNCCO)cc(O)c21; 11.8 µM

Hi team, please reply with TGI for each item in this list.
1. BrC1=CN2C[n+]3cc(Br)c4ccccc4c3N=C2c2ccccc21
2. CCOC(=O)c1c(NC(=O)c2ccc(Br)cc2)sc2c1CCCC2
3. COc1nc(OC)nc(Sc2ccc(Sc3ccc(Sc4nc(OC)nc(OC)n4)cc3)cc2)n1
4. NS(=O)(=O)c1ccc(N2N=C(c3cccs3)CC2c2ccccc2O)cc1 (stereo not given)

# output
32.4 µM
> 100 µM
> 100 µM
11 µM

Hi team, please reply with TGI for each item in this list.
1. Oc1ccc(O)c2c1C1(Cl)C(Cl)=C(Cl)C2(Cl)C1(Cl)Cl
2. COc1ccccc1Cn1[nH]c(=O)c2cc([N+](=O)[O-])ccc21
3. C=C1C(=O)O[C@H]2[C@H]1CC/C(CNC(=O)/C=C/c1ccc(Cl)cc1Cl)=C\CC[C@@]1(C)O[C@@H]21

# output
["27.3 µM", "> 100 µM", "14.2 µM"]

Hi team, please reply with TGI for each item in this list.
1. CN(C)CC1=Nc2cccc3cccc(c23)N1
2. CC1=C(C(=O)NC(C)(C)C)CC(C(=O)NC(C)(C)C)C(C)N1 (stereo not given)
3. COC(=O)c1nc(N)nc(C(=O)OC)c1C(=O)c1ccccc1
4. Cn1c2ccccc2c2[nH]c3ccccc3c(=O)c21
5. O=C1c2ccn(CCCCN(CCO)CCO)c2C(=O)c2c1c(O)c1ccccc1c2O
6. O=C1/C(=C\c2ccccc2)c2ccccc2N1/N=C\c1ccccc1
7. CC(=O)N(C)SCC(NC(=O)C(Cc1ccccc1)NC(=O)OCC1c2ccccc2-c2ccccc21)C(=O)NC(Cc1ccccc1)C(=O)NC(Cc1cn(C=O)c2ccccc12)C(=O)NC(CCCCNC(=O)OCC1c2ccccc2-c2ccccc21)C(=O)NC(C(=O)NC(CSN(C)C(C)=O)C(=O)NC(C(N)=O)C(C)O)C(C)O (stereo not given) (Fmoc-F[X31]FW(For)K(Fmoc)T[X31]T-NH2; configuration not given here)

# output
1: > 100 µM; 2: > 100 µM; 3: > 100 µM; 4: > 100 µM; 5: > 100 µM; 6: > 100 µM; 7: > 100 µM

Where do these numbers come from? They come from PubChem BioAssay (NCI).
